Where do these numbers come from? They come from the supplement of paper PMC11246515.

- assay-details: total protein half-life in vivo (active degradation + dilution); higher = more stable protein
- measurement-conditions: E. coli NCM3722 delta-lon; growth: N-lim chemostat; doubling time 6 h
quantity-name: total protein half-life in vivo (h)
Numbers only, in h.

MFAEYGVLNYWTYLVGAIFIVLVPGPNTLFVLKNSVSSGMKGGYLAACGVFIGDAVLMFLAWAGVATLIKTTPILFNIVRYLGAFYLLYLGSKILYATLKGKNSEAKSDEPQYGAIFKRALILSLTNPKAILFYVSFFVQFIDVNAPHTGISFFILAATLELVSFCYLSFLIISGAFVTQYIRTKKKLAKVGNSLIGLMFVGFAARLATLQS	5.03
MRRTFIKKEGVVITTLARYLLGEKCGNRLKTIDELANECRSSVGLTQAALKTLESSGAIRIERRGRNGSYLVEMDNKALLTHVDINNVVCAMPLPYTRLYEGLASGLKAQFDGIPFYYAHMRGADIRVECLLNGVYDMAVVSRLAAESYLTQKGLCLALELGPHTYVGEHQLICRKGESANVKRVGLDNRSADQKIMTDVFFGGSDVERVDLSYHESLQRIVKGDVDAVIWNVVAENELTMLGLEATPLTDDPRFLQATEAVVLTRVDDYPMQQLLRAVVDKHALLAHQQRVVSGEQEPSY	5.75
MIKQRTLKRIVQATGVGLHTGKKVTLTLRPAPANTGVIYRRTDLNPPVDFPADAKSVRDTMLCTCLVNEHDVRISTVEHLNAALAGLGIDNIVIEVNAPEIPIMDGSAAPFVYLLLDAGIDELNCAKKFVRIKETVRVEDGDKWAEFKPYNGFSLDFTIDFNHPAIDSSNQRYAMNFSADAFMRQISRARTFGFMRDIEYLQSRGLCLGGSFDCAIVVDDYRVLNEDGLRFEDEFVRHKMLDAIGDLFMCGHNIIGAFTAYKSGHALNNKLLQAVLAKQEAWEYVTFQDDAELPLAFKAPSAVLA [P0A725]	1.03
MDALSRLLMLNAPQGTIDKNCVLGSDWQLPHGAGELSVIRWHALTQGAAKLEMPTGEIFTLRPGNVVLLPQNSAHRLSHVDNESTCIVCGTLRLQHSARYFLTSLPETLFLAPVNHSVEYNWLREAIPFLQQESRSAMPGVDALCSQICATFFTLAVREWIAQVNTEKNILSLLLHPRLGAVIQQMLEMPGHAWTVESLASIAHMSRASFAQLFRDVSGTTPLAVLTKLRLQIAAQMFSRETLPVVVIAESVGYASESSFHKAFVREFGCTPGEYRERVRQLAP	6.04

Lookup result for MALLNVDKLSVHFGDESAPFRAVDRISYSVKQGEVVGIVGESGSGKSVSSLAIMGLIDYPGRVMAEKLEFNGQDLQRISEKERRNLVGAEVAMIFQDPMTSLNPCYTVGFQIMEAIKVHQGGNKSTRRQRAIDLLNQVGIPDPASRLDVYPHQLSGGMSQRVMIAMAIACRPKLLIADEPTTALDVTIQAQIIELLLELQQKENMALVLITHDLALVAEAAHKIIVMYAGQVVETGDAHAIFHAPRHPYTQALLRALPEFAQDKERLASLPGVVPGKYDRPNGCLLNPRCPYATDRCRAEEPALNMLADGRQSKCHYPLDDAGRPTL [P0AAG0] ; measured total protein half-life in vivo: 7.31
